Where these numbers come from: ChEMBL document CHEMBL2046421

Test system: NUGC-3
ASSAY_COMMENT: Antiproliferative activity against human NUGC3 cells by SRB assay
Type: functional
MEASURE_NAME: log10(GI50) (log10 of the value in nM)
Please be aware that the numbers have been log10-transformed from GI50 in nM.

Request the reported log10(GI50) associated with CC(C)C1CC(=O)c2s/c(=N/c3ccccc3)oc2C1 (stereo not given)
3.09

Request the reported log10(GI50) associated with CC1(C)CC(=O)c2s/c(=N/c3ccccc3)oc2C1
3.74

Request the reported log10(GI50) associated with CC(C)C1CC(=O)c2s/c(=N/C3CCCCC3)oc2C1 (stereo not given)
3.43

Request the reported log10(GI50) associated with CC(C)C1CC(=O)c2s/c(=N/c3ccc(F)cc3)oc2C1 (stereo not given)
2.83

Request the reported log10(GI50) associated with CC1CC(=O)c2s/c(=N/c3ccccc3)oc2C1 (stereo not given)
3.28

Request the reported log10(GI50) associated with CC1(C)CC(=O)c2s/c(=N/C3CCCCC3)oc2C1
4.06

Request the reported log10(GI50) associated with COc1cccc2c1C(=O)c1c(O)c3c(c(O)c1C2=O)C[C@@](O)(C(=O)CO)C[C@@H]3O[C@H]1C[C@H](N)[C@H](O)[C@H](C)O1
3.00

Request the reported log10(GI50) associated with CC1(C)CC(=O)c2s/c(=N/c3ccc(Cl)cc3)oc2C1
3.47

Request the reported log10(GI50) associated with CC1(C)CC(=O)c2s/c(=N/c3ccc(F)cc3)oc2C1
3.03

Request the reported log10(GI50) associated with CC1CC(=O)c2s/c(=N/c3ccc(Cl)cc3)oc2C1 (stereo not given)
4.20
